Data provenance: the supplement of paper PMC7125110

B1: glmS ribozyme (parent)
chain: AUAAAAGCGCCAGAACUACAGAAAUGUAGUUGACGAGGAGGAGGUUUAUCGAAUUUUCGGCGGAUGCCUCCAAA

Variants of: B1
RUN DESCRIPTION: self-cleavage kobs at 2500 uM GlcN6P; higher = faster cleavage; RNA array
CONDITION DETAILS: with glucosamine-6-phosphate
Fewer inactive variants are shown than the library holds.
Catalogue of self-cleavage kobs at 2500 uM GlcN6P readings, one per entry.
RECORDED ENDPOINT: self-cleavage kobs at 2500 uM GlcN6P (s⁻¹)

- BIOSEQUENCE: "AUAAAAGCGCCAGAACUACAGAAAUGUAGUUGACGAAGAGGAGGUAUAUCGAAUUUUCGGCGGAUGCCUCCAAA [G37A U46A]"
  REPORTED RELATION: "="
  ASSAY RESULT: "6.45e-05"
- BIOSEQUENCE: "AUAAAAGCGCCUGAACUACAGAAAUGUAGUUGACGGGGAGGAGGUUUAUCGCAUUUUCGGCGGAUGUCUCUAAA [A12U A36G A52C C67U C71U]"
  REPORTED RELATION: "<"
  ASSAY RESULT: "1e-05"
- BIOSEQUENCE: "AUAAAAGCACCAGAACUACAGAAAUGUAGUUGACGAGGAGGAGGUUCAUCUAAUUUUCGGCGAAUGCCUCCAAA [G9A U47C G51U G63A]"
  REPORTED RELATION: "<"
  ASSAY RESULT: "1e-05"
- BIOSEQUENCE: "AUAAAAGCGCCUGAACUACAGAAAUGUAGUUGACGAGGAGGAGGUUUAUCGAAUUUUCGGCCGAUGCCUCCAAA [A12U G62C]"
  REPORTED RELATION: "<"
  ASSAY RESULT: "1e-05"
- BIOSEQUENCE: "AUAAAAGCGCCAGAACUACAGAAAUGUAGUUGACGAGGAGGAGGUAUAUCGAUUUUUCGGCGGAUGCCUCCAAA [U46A A53U]"
  REPORTED RELATION: "="
  ASSAY RESULT: 0.000952
- BIOSEQUENCE: "AUAAAACCGCCAGCACUACAGAAAUGUAGUUGACGAGGAGGAGGUUUAUCGUAUUUUCGGCGGAUGCCUCCAAA [G7C A14C A52U]"
  REPORTED RELATION: "<"
  ASSAY RESULT: "1e-05"
- BIOSEQUENCE: "AUAAAAGCGCCAGACCUACAGAAAUGUAGAUGACGAGGAGGAGGUUUUUCGAAUUUUCGGCGGAUGCCUCCAAA [A15C U30A A48U]"
  REPORTED RELATION: "="
  ASSAY RESULT: "4.08e-05"
- BIOSEQUENCE: "AUAAAAGCGCCAGAACUACAGAAAUGUAGUGGACGAGCAGGAGGUCUAUCGAAUUUUCGGCGGAGGCCUCCAAA [U31G G38C U46C U65G]"
  REPORTED RELATION: "<"
  ASSAY RESULT: "1e-05"
- BIOSEQUENCE: "AUAAAAGCGCCAGGACUACAGAAAUGUAGUUGACGAGGAGCAGGUUUAUCGAAUUUUCGGCGGAUGCCUCCAAA [A14G G41C]"
  REPORTED RELATION: "="
  ASSAY RESULT: 0.000737
- BIOSEQUENCE: "AUAAAAGCGCCAGAGCUACAGAAAUGUAGUUGACGAGGUGGAGGUUUAUCGAAUUUUCGCCGGAUGCCUCCAAA [A15G A39U G60C]"
  REPORTED RELATION: "<"
  ASSAY RESULT: "1e-05"
- BIOSEQUENCE: "AUAAAAGCGCCAGAACUACAGAAAUGUAGUUAACGAGGAGGAGGUUUAUCGAAUUUUCGGCGGAUGCCUCCAAA [G32A]"
  REPORTED RELATION: "="
  ASSAY RESULT: 0.00219
- BIOSEQUENCE: "AUAAAAGUGCCAGAACUACAGAAAUGUAGUUUACGAGGAGGAGGCUUAUCGAAUUUUCGGCGGAUGCCUCCAAA [C8U G32U U45C]"
  REPORTED RELATION: "<"
  ASSAY RESULT: "1e-05"
- BIOSEQUENCE: "AUAAAAGCGCCAGAACUACAGAAAUGUAGUUGACGAGGAGGAGGUAUAUGGAAUUUUCGGCGGAUGCCUCCAAA [U46A C50G]"
  REPORTED RELATION: "<"
  ASSAY RESULT: "1e-05"
- BIOSEQUENCE: "AUAAAAGCACGAGAACUACAGAAAUGUAGUUGUCAAGGAGGAGGUUUAUCGAAUUUUAGGCGGAUGCCUGCAAA [G9A C11G A33U G35A C58A C70G]"
  REPORTED RELATION: "<"
  ASSAY RESULT: "1e-05"
- BIOSEQUENCE: "AUAAAAGCGCCAGCACUACAGAAAUGUAGUUGACGAGGAAGAGGUUUAUCGAAUUUUCGGCGGAUGCCUCCAAA [A14C G40A]"
  REPORTED RELATION: "="
  ASSAY RESULT: 0.000306
- BIOSEQUENCE: "AUAAAAGCGCCAGUACUACAGAAAUGUAGUUUACGAGGAUGAGGUUUAUCGAAUUUUCGGCGGAUGCCUCCAAA [A14U G32U G40U]"
  REPORTED RELATION: "="
  ASSAY RESULT: "3.98e-05"
- BIOSEQUENCE: "AUAAAAGCGCCAGAACUACAGAAAUGUAGUUAACGAGGAUGAGGUUUAUCGAAUUUUCGGCGGAUGGCUCCAAA [G32A G40U C67G]"
  REPORTED RELATION: "<"
  ASSAY RESULT: "1e-05"
- BIOSEQUENCE: "AUAAAAGCGCCAGAACUACAGAAAUGUAGUUGACGAGGAGCACGUUAAUCGAAUUUUCGGCGGGUGCCUCCAAA [G41C G43C U47A A64G]"
  REPORTED RELATION: "<"
  ASSAY RESULT: "1e-05"
- BIOSEQUENCE: "AUAAAAGCGCCAGAACUACAGAAAUGUAGUUGACGAGGAGGAGGUUGCUCGAAUUUUCGGCGGAUGCCUCCAAA [U47G A48C]"
  REPORTED RELATION: "="
  ASSAY RESULT: "9.31e-05"
- BIOSEQUENCE: "AUAAAUGCGCCAGAACUACAGAAAUGUAGUUCACGAGGAGGAGGUUUAUCGAAUUUUCGGCGGAUGCCUCCAAA [A6U G32C]"
  REPORTED RELATION: "<"
  ASSAY RESULT: "1e-05"
- BIOSEQUENCE: "AUAAAAGCGCCAGAACUACAGAAAUGUAGUCGACGAGGAGGAGGUUUAUCGAAUUUUCGGCGGAUGCCGCCAAA [U31C U69G]"
  REPORTED RELATION: "="
  ASSAY RESULT: "5.64e-05"
- BIOSEQUENCE: "AUAAAAGCGCCAGAACUACAGAAAUGUAGUUGAAGAGGCGGAGGUUUAUCGAAUUUUCGGCGGAUCCCUCAAAA [C34A A39C G66C C71A]"
  REPORTED RELATION: "<"
  ASSAY RESULT: "1e-05"
